test.summary: Half-life in plasma of rat
Assay type: ADME, organism-based
observation.type: half-life (h)
State just the number; it will be interpreted in h.

Query: Give the reported value of half-life for this record: CCCc1nc(C)c(C(=O)NCC)n1Cc1ccc2oc(-c3ccccc3NS(=O)(=O)C(F)(F)F)c(Br)c2c1
Reply: 4.5

* * *

assay.system: Angiotensin II receptor (Rattus norvegicus, UniProt P29089+P25095+P35351)
test.summary: Tested for in vitro binding affinity against angiotensin II receptor of rat liver
Please enter satisfied where Log Ki is greater than or equal to -9, and not satisfied where it is lower.

Examples from the recorded data:
[
  {
    "smiles.structure": "CCc1nc(Cl)c(C(=O)NC)n1Cc1ccc2oc(-c3ccccc3NS(=O)(=O)C(F)(F)F)c(Br)c2c1",
    "qualitative.label": "satisfied"
  },
  {
    "smiles.structure": "CCNC(=O)c1c(C2CC2)nc(CC)n1Cc1ccc2oc(-c3ccccc3C(=O)O)c(Br)c2c1",
    "qualitative.label": "satisfied"
  },
  {
    "smiles.structure": "CCc1nc(CC(C)C)c(C(N)=O)n1Cc1ccc2oc(-c3ccccc3NS(=O)(=O)C(F)(F)F)c(Br)c2c1",
    "qualitative.label": "satisfied"
  },
  {
    "smiles.structure": "CCc1nc(C2CC2)c(C(N)=O)n1Cc1ccc2oc(-c3ccccc3NS(=O)(=O)C(F)(F)F)c(Br)c2c1",
    "qualitative.label": "not satisfied"
  },
  {
    "smiles.structure": "CCNC(=O)c1c(Cl)nc(CC)n1Cc1ccc2oc(-c3ccccc3NS(=O)(=O)C(F)(F)F)c(Br)c2c1",
    "qualitative.label": "satisfied"
  },
  {
    "smiles.structure": "CCc1nc(C2CC2)c(C(=O)NCC(C)C)n1Cc1ccc2oc(-c3ccccc3NS(=O)(=O)C(F)(F)F)c(Br)c2c1",
    "qualitative.label": "not satisfied"
  }
]

From here, focus on the item given below.
Query: In plain terms: is recorded Log Ki at least -9 for CCc1nc(Cl)c(C(N)=O)n1Cc1ccc2oc(-c3ccccc3NS(=O)(=O)C(F)(F)F)c(Br)c2c1 ?
Reply: satisfied

* * *

assay.system: Angiotensin II receptor (Rattus norvegicus, UniProt P29089+P25095+P35351)
test.summary: Tested for in vitro binding affinity against angiotensin II receptor of rat liver
observation.type: Log Ki

[
  {
    "smiles.structure": "CCc1nc(C2CC2)c(C(N)=O)n1Cc1ccc2oc(-c3ccccc3NS(=O)(=O)C(F)(F)F)c(C(F)(F)F)c2c1",
    "obs.value": -9
  },
  {
    "smiles.structure": "CCc1nc(C2CC2)c(C(=O)NC)n1Cc1ccc2oc(-c3ccccc3NS(=O)(=O)C(F)(F)F)c(Br)c2c1",
    "obs.value": -9.4
  },
  {
    "smiles.structure": "CCCc1nc(Cl)c(C(=O)NCC)n1Cc1ccc2oc(-c3ccccc3NS(=O)(=O)C(F)(F)F)c(Br)c2c1",
    "obs.value": -9
  }
]

Query: Query Log Ki for CCc1nc(C)c(C(=O)NC)n1Cc1ccc2oc(-c3ccccc3NS(=O)(=O)C(F)(F)F)c(Br)c2c1
Reply: -8.5

Query: State its Log Ki: CCCCc1nc(Cl)c(C(=O)NC)n1Cc1ccc2oc(-c3ccccc3NS(=O)(=O)C(F)(F)F)c(Br)c2c1
Reply: -8.8

Query: # return recorded Log Ki for input CCCc1nc(Cl)c(C(N)=O)n1Cc1ccc2oc(-c3ccccc3NS(=O)(=O)C(F)(F)F)c(Br)c2c1
Reply: -8.7

* * *

test.summary: Bioavailability in rat
Type: ADME, organism-based
condition.summary: in vivo
observation.type: bioavailability (%)
Reply numerically in %, unit not repeated.

Query: Identify the reported bioavailability for the following entry. CCCc1nc(C)c(C(=O)NCC)n1Cc1ccc2oc(-c3ccccc3NS(=O)(=O)C(F)(F)F)c(Br)c2c1
Reply: 90

* * *

test.summary: The compound was tested for plasma clearance in rat at dose of 3-10 mgkg
Type: ADME, organism-based
observation.type: clearance (mL/min/kg)
Lab book: enter the figure in mL/min/kg, no units written.

Query: Respond only with clearance recorded for CCCCc1nc(Cl)c(CO)n1Cc1ccc2oc(-c3ccccc3-c3nn[nH]n3)c(Br)c2c1
Reply: 18

* * *

test.summary: Half-life in plasma of dog
Assay type: ADME, organism-based, Canis lupus familiaris
observation.type: half-life (h)
Write down the numeric answer in h and omit the unit.

Query: Please report half-life for the following compound: CCc1nc(C2CC2)c(C(N)=O)n1Cc1ccc2oc(-c3ccccc3NS(=O)(=O)C(F)(F)F)c(Br)c2c1
Reply: 9.3

* * *

Recorded half-life for the following molecules
test.summary: Half-life in plasma of dog at dose of […]-[…] mgkg
Format: ADME, organism-based, Canis lupus familiaris
Note: unit h is implicit; provide only the numeric part.

[
  {
    "smiles.structure": "CCCCc1nc(Cl)c(C(=O)NC)n1Cc1ccc2oc(-c3ccccc3-c3nn[nH]n3)c(Br)c2c1",
    "observation.type": "half-life",
    "obs.value": 0.5
  },
  {
    "smiles.structure": "CCCCc1nc(Cl)c(C(=O)O)n1Cc1ccc2oc(-c3ccccc3-c3nn[nH]n3)c(Br)c2c1",
    "observation.type": "half-life",
    "obs.value": 2.5
  }
]

Query: Tell us which half-life value is on record for CCc1nc(C)c(C(=O)O)n1Cc1ccc2oc(-c3ccccc3-c3nn[nH]n3)c(Br)c2c1
Reply: 4

Query: Note down half-life recorded for CCOC(=O)c1c(C)nc(CC)n1Cc1ccc2oc(-c3ccccc3-c3nn[nH]n3)c(Br)c2c1
Reply: 0.2

* * *

Measured bioavailability, listed per entry.
test.summary: Bioavailability in dog (dose 3-10 mg/kg)
Format: ADME, organism-based, Canis lupus familiaris
condition.summary: in vivo
Return type: number; implicit unit %.

Observe how each entry below is paired with its result.
[
  {
    "compound": "CCOC(=O)c1c(C)nc(CC)n1Cc1ccc2oc(-c3ccccc3-c3nn[nH]n3)c(Br)c2c1",
    "bioavailability, %": 70
  },
  {
    "compound": "CCCCc1nc(Cl)c(C(=O)NC)n1Cc1ccc2oc(-c3ccccc3-c3nn[nH]n3)c(Br)c2c1",
    "bioavailability, %": 36
  },
  {
    "compound": "CCc1nc(C)c(C(=O)O)n1Cc1ccc2oc(-c3ccccc3-c3nn[nH]n3)c(Br)c2c1",
    "bioavailability, %": 8
  }
]

// below: bioavailability requested for another compound
Query: State its bioavailability for this compound: CCCCc1nc(Cl)c(C(=O)O)n1Cc1ccc2oc(-c3ccccc3-c3nn[nH]n3)c(Br)c2c1 [ZOLASARTAN]
Reply: 9

* * *

assay.system: Angiotensin II receptor (Rattus norvegicus, UniProt P29089+P25095+P35351)
test.summary: Tested for in vitro binding affinity against angiotensin II receptor of rat liver
observation.type: Log Ki
Just the number, please.

These recorded examples may help you get a feel for the data.
[
  {
    "smiles.structure": "CCc1nc(C)c(C(N)=O)n1Cc1ccc2oc(-c3ccccc3NS(=O)(=O)C(F)(F)F)c(Br)c2c1",
    "Log Ki": -8.9
  },
  {
    "smiles.structure": "CCNC(=O)c1c(C2CC2)nc(CC)n1Cc1ccc2oc(-c3ccccc3NS(=O)(=O)C(F)(F)F)c(Br)c2c1",
    "Log Ki": -9.2
  }
]

Query: Look up Log Ki of CCc1nc(C2CC2)c(C(N)=O)n1Cc1ccc2oc(-c3ccccc3NS(=O)(=O)C(F)(F)F)c(Cl)c2c1 and report it.
Reply: -8.9

Query: Quote Log Ki reported for CCc1c(-c2ccccc2NS(=O)(=O)C(F)(F)F)oc2ccc(Cn3c(CC)nc(C4CC4)c3C(N)=O)cc12 please.
Reply: -8.8

Query: Indicate its recorded Log Ki; the molecule in question is CCCc1nc(C)c(C(N)=O)n1Cc1ccc2oc(-c3ccccc3NS(=O)(=O)C(F)(F)F)c(Br)c2c1
Reply: -9.1

* * *

Below, each of the molecules is paired with its reported Log Ki value.
assay.system: Angiotensin II receptor (Rattus norvegicus, UniProt P29089+P25095+P35351)
test.summary: Tested for in vitro binding affinity against angiotensin II receptor of rat liver
# answer = number (no unit)

Query: Output measured Log Ki for this item: CCCc1nc(C)c(C(=O)NCC)n1Cc1ccc2oc(-c3ccccc3NS(=O)(=O)C(F)(F)F)c(Br)c2c1
Reply: -9.5

Query: # return recorded Log Ki for input CCCc1nc(C)c(C(=O)NC)n1Cc1ccc2oc(-c3ccccc3NS(=O)(=O)C(F)(F)F)c(Br)c2c1
Reply: -9

Query: Please give measured Log Ki of the following entry: CCNC(=O)c1c(C)nc(CC)n1Cc1ccc2oc(-c3ccccc3NS(=O)(=O)C(F)(F)F)c(Br)c2c1
Reply: -8.9

Query: Return Log Ki for the following molecule: CCCc1nc(Cl)c(C(=O)NC)n1Cc1ccc2oc(-c3ccccc3NS(=O)(=O)C(F)(F)F)c(Br)c2c1
Reply: -8.9

Query: Quick one: give measured Log Ki for CCc1nc(C2CC2)c(C(N)=O)n1Cc1ccc2oc(-c3ccccc3NS(=O)(=O)C(F)(F)F)cc2c1
Reply: -7

Query: Input CNC(=O)c1c(C)nc(C)n1Cc1ccc2oc(-c3ccccc3NS(=O)(=O)C(F)(F)F)c(Br)c2c1 , output reported Log Ki.
Reply: -7.5

Query: Please look at this molecule and report its Log Ki: CCNC(=O)c1c(C2CC2)nc(CC)n1Cc1ccc2oc(-c3ccccc3-c3nn[nH]n3)c(Br)c2c1
Reply: -9.4

Query: Look up and report measured Log Ki for this entry: CCc1nc(C(C)C)c(C(N)=O)n1Cc1ccc2oc(-c3ccccc3NS(=O)(=O)C(F)(F)F)c(Br)c2c1
Reply: -8.4

Query: Look up and state reported Log Ki for CCc1nc(CC)n(Cc2ccc3oc(-c4ccccc4NS(=O)(=O)C(F)(F)F)c(Br)c3c2)c1C(N)=O
Reply: -9.1

Query: State its Log Ki for this molecule: CCc1nc(C)c(C(=O)N(C)C)n1Cc1ccc2oc(-c3ccccc3NS(=O)(=O)C(F)(F)F)c(Br)c2c1
Reply: -8.6
